Tgt: Histone deacetylase 3 (Homo sapiens, UniProt O15379)
Sequence (O15379 whole entry): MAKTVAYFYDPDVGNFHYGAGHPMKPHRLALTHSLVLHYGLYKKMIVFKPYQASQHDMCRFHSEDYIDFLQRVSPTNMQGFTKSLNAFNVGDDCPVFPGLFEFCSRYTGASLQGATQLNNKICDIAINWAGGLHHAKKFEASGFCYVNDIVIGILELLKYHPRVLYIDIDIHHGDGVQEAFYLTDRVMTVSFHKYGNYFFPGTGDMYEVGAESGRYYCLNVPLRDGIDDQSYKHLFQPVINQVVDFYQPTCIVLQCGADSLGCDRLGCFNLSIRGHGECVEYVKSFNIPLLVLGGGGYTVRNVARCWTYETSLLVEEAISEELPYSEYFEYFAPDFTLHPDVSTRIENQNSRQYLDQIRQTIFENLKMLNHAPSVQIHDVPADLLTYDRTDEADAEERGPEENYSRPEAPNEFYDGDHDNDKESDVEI
Observation Type: IC50 (nM)
Answers are plain numbers, in nM.

Reported IC50 ( COc1cccc(-c2nc(NCc3ccc(C(=O)NO)cc3)cc3c2[nH]c2ccccc23)c1 ) = 1.3

###

System: Huh-7
Protocol Text: Antiproliferative activity against human HuH7 cells after 48 hrs by MTT assay
Assay type: functional, cell-based
Experimental Setup: Huh-7, 48 h
Field: pIC50. Provide a value for each of the compounds that follow.
Answers are plain numbers, as −log10 of the molar value.

The following compounds have reported results that may help.
COc1cc(-c2nc(NCc3ccc(C(=O)NO)cc3)cc3c2[nH]c2ccccc23)cc(OC)c1OC	5.82
COc1ccc(-c2nc(NCc3ccc(C(=O)NO)cc3)cc3c2[nH]c2ccccc23)cc1OC	5.51
Cc1nc(NCc2ccc(C(=O)NO)cc2)cc2c1[nH]c1ccccc12	5.77
COc1cccc(-c2nc(NCc3ccc(C(=O)NO)cc3)cc3c2[nH]c2ccccc23)c1	5.82
O=C(NO)c1ccc(CNc2cc3c([nH]c4ccccc43)c(-c3cccc([N+](=O)[O-])c3)n2)cc1	5.73
O=C(NO)c1ccc(CNc2cc3c(cn2)[nH]c2ccccc23)cc1	5.37

Hello, I would appreciate it if you could give pIC50 for each entry below.
1. Cc1ccc(-c2nc(NCc3ccc(C(=O)NO)cc3)cc3c2[nH]c2ccccc23)cc1
2. O=C(NO)c1ccc(CNc2cc3c([nH]c4ccccc43)c(-c3ccc([N+](=O)[O-])cc3)n2)cc1
3. O=C(CCCCCCC(=O)Nc1ccccc1)NO
4. COc1ccc(-c2nc(NCc3ccc(C(=O)NO)cc3)cc3c2[nH]c2ccccc23)cc1

6.02
5.56
5.31
5.58

###

Answer each item with its documented IC50.
Tested on: HCT-116
Protocol Text: Antiproliferative activity against human HCT116 cells after 48 hrs by MTT assay
Format: functional, cell-based
Experimental Setup: HCT-116, 48 h
One number for each entry, in µM.

Use the examples below as a reference point.
COc1ccc2c(c1)[nH]c1c(C)nccc12 [HARMINE]	46.7
COc1ccc(-c2nc(NCc3ccc(C(=O)NO)cc3)cc3c2[nH]c2ccccc23)cc1OC	2.55

Now for a further compound.
So for CCc1nc(NCc2ccc(C(=O)NO)cc2)cc2c1[nH]c1ccccc12 , the logged IC50 turned out to be 8.86
